Target: T1, recombinant human ErbB2 extracellular domain (ErbB2-ECD) (human, UniProt P04626 23-652)
T1 construct: extracellular domain; Coated on plates or used biotin-labeled in solution (capture ELISA); also called Human ErbB2-ECD; rhErbB2
Assay: capture ELISA, recombinant ErbB2-ECD
List of EC50 values.
Respond with the bare value in nM.

{"columns": ["binder", "EC50 (nM)"],
 "data": [
  ["4C9 chimera (antibody, V domains shown, also called 4C9 chimeric antibody) VH: QVQLQQSGAELARPGASVKMSCKASGYTFTSYTMHWVKQRPGQGLDWIGYINPSSGYTTYNQKFKDKATLTADKSSSTAYMQLSSLASADSAVYYCARASAYSLDYWGQGTTLTVSS VL: DIQMTQSPSSLSASLGGRVTITCKASHDIDRYIAWYQHKPGKGPRLLIHYTSTLQPGIPSRFSGSGSGRDYSFSISNLEPEDIATYYCLKYDNLLWTFGGGTKLEIT", 0.114]
]}

For record 5G9 chimera (antibody, V domains shown, also called 5G9 chimeric; 5G9 chimeric antibody) VH: QVQLQQSGAELARPGASVKMSCKTSGYTFSSYTIHWVKQRPGQGLDWIGYINPSSDYTAYNQKFRDKATLTADQSSNTAYMQLSSLASADSAVYYCARASAFSLDFWGQGTTLTVSS VL: DIQMTQSPSSLSASLGGKVTISCKASHDIDRYIAWYQHKPGKGPRLLIHYTSTLQPGIPSRFSGSGSGRDYSFSISNLEPEDVATYYCLNYDNLLWTFGGGTKLEIT the listed EC50 is 0.049

Data provenance: patent US20200002434A1
